Assay: qHTS for Inhibitors of human tyrosyl-DNA phosphodiesterase 1 (TDP1): qHTS in cells in absence of CPT; further: nearly all actives have a fitted effect of over 55% in size
Settings: DT40 Tdp1-/- hTDP1 cells, no CPT, ATP luminescence, 48 h
Out of some 420,000 compounds screened, about 64,000 (15%) were called active. Not shown: some 27% with an inconclusive outcome. The call rests on the fitted dose curve; in most records, active means well fitted inhibition curve with a large enough effect; inconclusive means small, poorly fitted or top-dose-only effect; inactive means flat fitted curve, though single readings scatter. A selection follows.
Outcome codes: true = active, false = inactive

>>> category("Cc1ccc(N(CCC(=O)O)S(=O)(=O)c2cccc(C(F)(F)F)c2)cc1")
"false"
>>> category("CNc1ncnc2ccc(-c3cccc(NS(C)(=O)=O)c3)cc12")
"true"
>>> category("Cc1ccc(C(=O)N2CCC(n3nccc3NC(=O)Nc3cccc(F)c3)CC2)cn1")
"false"
>>> category("Cc1oc2c(F)c(F)c(F)c(F)c2c1S(=O)(=O)Nc1cccc(C(F)(F)F)c1")
"true"
>>> category("CS(=O)(=O)Nc1cccc(-c2cncnc2Nc2ccccc2)c1")
"false"

* * *

Assay: qHTS for Inhibitors of human tyrosyl-DNA phosphodiesterase 1 (TDP1): qHTS in cells in absence of CPT; further: nearly all actives have a fitted effect of over 55% in size
Conditions: DT40 Tdp1-/- hTDP1 cells, no CPT, ATP luminescence, 48 h
Among all 420,000 compounds or so, about 64,000 (15%) were called active. Inconclusive results (about 27%) are left out. Calls come from the whole dose curve; as a rule, active = well fitted inhibition curve with a large enough effect; inconclusive = small, poorly fitted or top-dose-only effect; inactive = flat fitted curve, though single readings scatter. A selection follows.
Outcome codes: active, inactive

>>> category("CCn1ccnc1CN(C)C(=O)c1cc(COc2ccc(Cl)cc2OC)on1")
"inactive"
>>> category("Cc1ccc(C)c(N(CC(=O)NCc2ccco2)C(=O)CCC(=O)Nc2ccccn2)c1")
"inactive"
>>> category("O=C(NCc1ccco1)c1nc2ncccn2n1")
"inactive"
>>> category("O=C(NCc1ccco1)c1cccn2c(=O)c3c4c(sc3nc12)CCCC4")
"active"
>>> category("O=c1oc(-c2ccco2)nc2sc3c(c12)CCCCC3")
"inactive"
>>> category("CCOC(=O)N1CCN(Cc2nc(N)nc(Nc3ccc(C)cc3)n2)CC1")
"inactive"

* * *

Test: qHTS for Inhibitors of human tyrosyl-DNA phosphodiesterase 1 (TDP1): qHTS in cells in absence of CPT; further: nearly all actives have a fitted effect of over 55% in size
Settings: DT40 Tdp1-/- hTDP1 cells, no CPT, ATP luminescence, 48 h
Hit rate of the full screen: of about 420,000 compounds, about 64,000 (15%) were called active. Roughly 27% stayed inconclusive and do not appear here. Calls come from the whole dose curve; as a rule, active = well fitted inhibition curve with a large enough effect; inconclusive = small, poorly fitted or top-dose-only effect; inactive = flat fitted curve, though single readings scatter. The list is a sample of the results.
Outcome codes: active, inactive

>>> category("C/C(=C\\c1ccco1)CN1CCC(N2CCC(C(=O)N3CCOCC3)CC2)CC1")
"inactive"
>>> category("CCCc1c(C(=O)O)cnn1-c1ccc(Cl)cc1")
"inactive"
>>> category("CCCc1c(C(=O)Nc2ccc(F)cc2)cnn1-c1ccccc1")
"active"
>>> category("Cc1ccc(-n2nc(-c3ccco3)cc2C(=O)NCc2cccnc2)cc1")
"active"
>>> category("O=C(Cn1cc(C(F)(F)F)ccc1=O)Nc1ccc2c(c1)OCCO2")
"inactive"
>>> category("CN(CCc1cn[nH]c1)C(=O)CC1C(=O)NCCN1Cc1cccc(Oc2ccccc2)c1 (stereo unspecified)")
"inactive"

* * *

Experiment: qHTS for Inhibitors of human tyrosyl-DNA phosphodiesterase 1 (TDP1): qHTS in cells in absence of CPT; further: nearly all actives have a fitted effect of over 55% in size
Details: DT40 Tdp1-/- hTDP1 cells, no CPT, ATP luminescence, 48 h
Among all 420,000 compounds or so, about 64,000 (15%) were called active. About 27% were inconclusive and are not listed. Calls come from the whole dose curve; as a rule, active = well fitted inhibition curve with a large enough effect; inconclusive = small, poorly fitted or top-dose-only effect; inactive = flat fitted curve, though single readings scatter. A selection follows.
Outcome codes: active, inactive

>>> category("CC(C)=CCN1CCN(CCCc2ccccc2)CC1CCO (centres undefined)")
"inactive"
>>> category("COc1ccc(-c2noc(-c3ccc(N4CCN(c5ccccc5)CC4)c([N+](=O)[O-])c3)n2)cc1OC")
"active"
>>> category("COc1cccc(C(=O)N/N=C(\\C)c2cccc(NC(=O)c3ccc(F)cc3)c2)c1OC")
"active"
>>> category("CC(C)(C)NC(=O)/C(=C/c1cccnc1)NC(=O)c1ccco1")
"inactive"
>>> category("COC(=O)C1=C(C(=O)OC)C(c2cc([N+](=O)[O-])ccc2O)c2sc(=O)[nH]c2S1 (centres undefined)")
"inactive"
>>> category("CCCS(=O)(=O)N1CCC(C(=O)NCCc2ccc(OC)c(OC)c2)CC1")
"inactive"
>>> category("O=C(O)c1ccc(/C=C2\\SC(=S)N(NC(=O)c3ccc(Br)cc3)C2=O)cc1")
"inactive"
>>> category("CCCCCCn1c(=O)n2n(c1=O)C[C@]1(OC(=O)NCc3ccc(OC)c(OC)c3)CN(S(=O)(=O)c3ccc(C)cc3)C[C@]1(O)C2")
"active"
>>> category("O=C(O)CCC(=O)N(Cc1ccccc1)Cc1ccccc1")
"inactive"
>>> category("CCCC(C(=O)N1CCOCC1)N1C(=O)C2C3C=CC(C3)C2C1=O (centres undefined)")
"inactive"
>>> category("CCCC12CN3CC(CCC)(CN(C1)C3c1c[nH]c3ccc(OC)cc13)C2=O (centres undefined)")
"active"
>>> category("CCCC12CN3CC(C)(CN(C1)C3c1ccccc1Cl)C2=O (centres undefined)")
"inactive"
>>> category("CC12CCCCC1=CC(=O)CC2 (centres undefined)")
"inactive"
>>> category("Cc1cc([N+](=O)[O-])c(N2CCC[C@@H]2C(=O)O)c([N+](=O)[O-])c1")
"inactive"
>>> category("COC(=O)[C@H](CCSC)NC(=O)Nc1ccc(OC)cc1")
"inactive"
>>> category("COc1ccc(C)cc1S(=O)(=O)Nc1cc2c3c(c1)CCC(=O)N3CCC2")
"inactive"
>>> category("CCc1ccccc1N1C(=O)CN(S(=O)(=O)CC)CC1(C)C(=O)NC1CCCCC1 (centres undefined)")
"inactive"
>>> category("CSC1=NCCN1C(=O)Cc1cccc2ccccc12")
"inactive"
>>> category("COc1ccc(CNC(=O)COC(=O)CCS(=O)(=O)c2ccc(C)cc2)cc1OC")
"inactive"
>>> category("OCC[C@H]1C[C@@H](O)[C@H](O)[C@@]2(OCCc3ccccc32)O1")
"inactive"
>>> category("CC(C)CCn1c(CN(C)Cc2ccccc2)nc2c1c(=O)n(C)c(=O)n2C")
"active"
>>> category("Nn1c(SCC(=O)NC2CCCC2)nnc1-c1ccccc1F")
"inactive"
>>> category("CCn1c(SC(C)C(=O)Nc2ccc(N3CCOCC3)cc2)nnc1-c1ccco1 (centres undefined)")
"inactive"
>>> category("O=C(CN(C(=O)c1csnn1)c1cccc(F)c1)NCc1ccc(F)cc1")
"inactive"
>>> category("CCN(CC)CC(=O)c1c[nH]c2ccc(OC)cc12")
"inactive"
>>> category("O=C(CCCn1c(=O)oc2ccccc21)Nc1cccnc1")
"inactive"
>>> category("COc1cc(C2C(C(=O)Nc3ccc(F)cc3)=C(C)Nc3nc(CCCO)nn32)cc(OC)c1OC (centres undefined)")
"inactive"
>>> category("CNc1ccc(-c2nc(-c3ccco3)no2)cc1[N+](=O)[O-]")
"inactive"
>>> category("O=[N+]([O-])c1ccc2[nH]c3c(c2c1)CCCC3O (centres undefined)")
"inactive"
>>> category("CCc1nc(NCCO)c(C#N)c2c1CCCC2")
"inactive"
>>> category("CCOc1ccc(C2C(C(=O)Nc3ccc(Cl)cc3)=C(C)Nc3nc(C(F)(F)F)nn32)cc1 (centres undefined)")
"active"
>>> category("Cc1cccc(NC(=S)NC(=O)c2ccc(Br)o2)c1")
"inactive"
>>> category("CC(C)CCN1CCN(Cc2cn[nH]c2C2CCCCC2)CC1CCO (centres undefined)")
"inactive"
>>> category("CCn1c(=S)sc2c(=O)n(CC(=O)Nc3ccc(OC)cc3)c(C)nc21")
"inactive"
>>> category("COc1ccccc1CCNS(=O)(=O)c1cc2c3c(c1)C(C)C(=O)N3CCC2 (centres undefined)")
"active"
>>> category("Cc1nc2ccc(S(=O)(=O)NCC(=O)NCCN3CCCCC3C)cc2s1 (centres undefined)")
"inactive"
>>> category("COc1cc(-c2noc(-c3ccc(N4CCCC4)c([N+](=O)[O-])c3)n2)cc(OC)c1OC")
"inactive"
>>> category("CC(O)c1nc2c(c(=O)n(C)c(=O)n2C)n1C (centres undefined)")
"inactive"
>>> category("NCCCNCCCCN(CCCN)/[N+]([O-])=N/O")
"active"
>>> category("CN1C2CCC1CC(NC(=O)c1ccc([N+](=O)[O-])cc1)C2 (centres undefined)")
"inactive"
>>> category("Cc1ccc(NC(=S)NC(NC(=O)Cc2cccc3ccccc23)C(Cl)(Cl)Cl)cc1 (centres undefined)")
"inactive"
>>> category("CCOc1cc(C2C(C(=O)Nc3ccc(OC)cc3)=C(C)Nc3nc(SC)nn32)ccc1O (centres undefined)")
"inactive"
>>> category("CC(C)=CCN1CCC2(CCc3ccccc32)CC1")
"active"
>>> category("CN(C)C(=O)c1cc(Br)ccc1Cl")
"inactive"
